Across several studies, compounds have been characterized by their pIC50 on UniProt P08473; a selection follows.
In simple prose, pIC50 is minus the logarithm base ten of a concentration in moles per litre.

• CC(C)C[C@@H](CC(=O)O)C(=O)N[C@@H](CO)C(=O)O = 7.20
• O=C(O)CN1C(=O)[C@@H](NC(=O)[C@@H](S)Cc2ccccc2)COc2ccccc21 = 8.51
• CS(=O)(=O)N[C@@H](CCCCN)C(=O)NC[C@H](CC1(C(=O)N[C@@H](Cc2ccc(O)cc2)C(=O)O)CCCC1)C(=O)O = 8.10

Now for the compound whose pIC50 we want.
(Q) API: value(readout= pIC50, system= UniProt P08473, query= "CN1C(=O)CC[C@H](NC(=O)[C@@H](S)Cc2ccccc2)C(=O)N1CC(=O)O" )
(A) 7.26

---

Across several studies, compounds have been characterized by their pIC50 on Neprilysin (Homo sapiens, UniProt P08473); a selection follows.
Sequence (P08473 whole entry): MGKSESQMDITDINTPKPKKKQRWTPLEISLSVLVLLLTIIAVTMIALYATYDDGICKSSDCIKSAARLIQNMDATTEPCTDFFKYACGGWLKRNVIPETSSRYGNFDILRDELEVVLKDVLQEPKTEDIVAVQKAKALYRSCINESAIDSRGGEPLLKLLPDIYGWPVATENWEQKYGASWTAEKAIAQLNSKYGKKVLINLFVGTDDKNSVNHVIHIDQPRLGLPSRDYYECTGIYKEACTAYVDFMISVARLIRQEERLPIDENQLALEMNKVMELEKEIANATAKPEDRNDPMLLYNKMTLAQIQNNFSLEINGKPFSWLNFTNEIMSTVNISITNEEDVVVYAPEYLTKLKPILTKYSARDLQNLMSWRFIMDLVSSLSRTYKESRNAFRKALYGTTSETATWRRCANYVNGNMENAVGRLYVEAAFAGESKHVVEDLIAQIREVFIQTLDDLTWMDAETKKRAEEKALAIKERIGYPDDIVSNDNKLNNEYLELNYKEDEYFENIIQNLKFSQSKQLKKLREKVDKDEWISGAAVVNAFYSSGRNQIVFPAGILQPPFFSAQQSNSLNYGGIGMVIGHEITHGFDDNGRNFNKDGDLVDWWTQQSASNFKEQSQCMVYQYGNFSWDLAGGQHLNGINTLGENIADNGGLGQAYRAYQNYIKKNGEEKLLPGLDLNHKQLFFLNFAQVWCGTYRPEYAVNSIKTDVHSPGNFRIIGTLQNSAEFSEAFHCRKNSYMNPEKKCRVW
In simple prose, pIC50 is minus the logarithm base ten of a concentration in moles per litre.

• CC(C)C[C@H](NC(=O)[C@H](CC#Cc1ccccc1)NCP(=O)(O)O)C(=O)O = 6.02

(Q) Fill in the blank: the reported pIC50 of COC(=O)C(CC(C)C)C(=O)N[C@@H](CO)C(=O)O (mixture of isomers) is ____.
(A) 4.30

(Q) Fill in the blank: the reported pIC50 of "O=C1N[C@H](C(=O)O)CCCCCCc2ccccc2C[C@@H]1CS" is ____.
(A) 6.65

(Q) Fill in the blank: the reported pIC50 of "O=C1N[C@H](C(=O)O)CCCCCc2ccccc2C[C@H]1CS" is ____.
(A) 8.40

(Q) Fill in the blank: the reported pIC50 of "O=C(O)[C@H](Cc1ccc2c(c1)oc1ccccc12)NCP(=O)(O)O" is ____.
(A) 5.64

(Q) Fill in the blank: the reported pIC50 of "O=C(O)[C@H](Cc1ccc(-c2ccccc2)cc1)NC(=O)[C@H](Cc1ccc(Cl)cc1)NCP(=O)(O)O" is ____.
(A) 6.47

(Q) Fill in the blank: the reported pIC50 of "O=C(O)Cc1csc(NC(=O)[C@H](Cc2ccc(-c3ccccc3)cc2)C[C@H](COc2ccccc2)C(=O)O)n1" is ____.
(A) 8.48

---

Across several studies, compounds have been characterized by their IC50 on Neprilysin (Homo sapiens, UniProt P08473); a selection follows.
Number only, in nM; omit the unit.

- O=C(O)CCN1C(=O)[C@@H](NC(=O)[C@@H](S)Cc2ccccc2)CSc2ccccc21: 2.2
- O=C(N[C@H]1CCCN2CC[C@@H](C(=O)O)N2C1=O)[C@@H](S)Cc1ccccc1: 22
- CC(C)CN(C[C@H](O)C(=O)O)C(=O)N[C@@H](Cc1cccc2ccccc12)C(=O)O: 9
- O=C(O)[C@H](Cc1ccc2ccccc2c1)NC(=O)N(CCN1C(=O)c2cccc3cccc(c23)C1=O)C[C@H](O)C(=O)O: 650
- O=C(O)Cc1nnc(NC(=O)[C@H](Cc2ccc(-c3ccccc3)cc2)CC(COc2ccccc2)C(=O)O)s1 (stereo partly drawn): 92
- O=C(O)CN1Cc2ccccc2C[C@H](NC(=O)[C@@H](S)Cc2ccccc2)C1=O: 175

(Q) Fill in the blank: the reported IC50 of "O=C(O)Cc1csc(NC(=O)[C@H](Cc2ccc(-c3ccccc3)cc2)C[C@@H](COc2ccccc2)C(=O)O)n1" is ____.
(A) 0.69
